Tested on: CP211
assay: qHTS profiling for inhibitors of Plasmodium falciparum proliferation (AID 504749); also: nearly all actives have a fitted effect of over 60% in size
conditions.used: P. falciparum in erythrocytes, SYBR Green DNA, 72 h; series mostly up to 28.7 µM
Results filed as inconclusive are left out. Activity calls are given as the source filed them. Calls follow the shape of the dose curve; as a rule, active = well fitted inhibition curve with a large enough effect; inconclusive = small, poorly fitted or top-dose-only effect; inactive = flat fitted curve, though single readings scatter.
The reply should be one of these categories: active, inactive

Lookup: Hi team, can someone confirm the assay call for CCN1C[C@]2(COC)[C@H](O)C[C@H](OC)[C@]34C1C([C@H](OC)[C@H]23)[C@]1(OC(C)=O)C2[C@@H](OC(=O)c3ccccc3)C(O)(C[C@H]24)[C@@H](OC)[C@@H]1O ?
Found: inactive

Lookup: Request: Oc1cc[c]([Hg][Cl])cc1
Found: active

Lookup: Request: CO[C@H]1[C@@H](O)CC(OC2[C@@H](O)CC(OC3[C@@H](O)C[C@H](OC4CC[C@@]5(C)C(CCC6C5CC(O)[C@]5(C)[C@H](C7=CC(=O)OC7)CCC65O)C4)O[C@@H]3C)O[C@@H]2C)O[C@@H]1C (some centres undefined)
Found: inactive

Lookup: Request: CCCCCCCCCC[N+](C)(C)CCCCCCCCCC
Found: active

###

assay: qHTS Assay for Identifying Gametocytocidal Compounds (AID 743244);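 also: % is scaled to controls: 0 for no effect and ±100 for the full control effect; actives lower the fluorescent signal which means gametocytes are killed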
conditions.used: P. falciparum 3D7 stage III-V gametocytes, alamarBlue, 72 h; stronger effect = lower value
Inconclusive results are not listed.
measured.property: max response (%)
Please state the figure in %; there is no need to write the unit.

{"molecule": "Oc1ccc2c3c1O[C@H]1[C@@H](O)C=C[C@H]4[C@H](C2)NCC[C@@]341", "max response [%]": 8.16}
{"molecule": "CNC(C)CC1CCCCC1 (configuration not stated)", "max response [%]": -3.52}
{"molecule": "CCOP(=S)(OCC)SCSc1ccc(Cl)cc1", "max response [%]": -1.21}
{"molecule": "COc1cc(C[C@H](C)N)c(OC)cc1Br", "max response [%]": -8.52}

Lookup: Endpoint output: max response of COc1ccc2c(c1)CCC1C2CC[C@@]2(C)C1CC[C@@H]2NCCCCCCN1C(=O)C=CC1=O (some centres not stated) . Value?
Found: 27.3

Lookup: Request: CN1CCC[C@H]1c1cccnc1
Found: 8.91

Lookup: Request: COC(=O)c1ccccc1C(=O)OC
Found: -14.6

###

assay: Confirmatory screen NINDS Rhodamine qHTS for Zika virus inhibitors (AID 1347161); also: nearly all actives have a fitted effect of over 60% in size
conditions.used: purified enzyme assay, Rhodamine110 substrate fluorescence, 15 min; series mostly up to 114 µM
Records with an inconclusive call do not appear. Active and inactive are the calls of the source. The call rests on the fitted dose curve; in most records, active means well fitted inhibition curve with a large enough effect; inconclusive means small, poorly fitted or top-dose-only effect; inactive means no such curve, though single readings can be large or run the other way.
The reply should be one of these categories: 1 (yes) for active, 0 (no) for inactive

Worked cases, answers included:
{"substance.smiles": "CC(C)=CCC[C@]1(C)C=Cc2c(O)c3c(c(CC=C(C)C)c2O1)O[C@]12C(=C[C@@H]4CC1C(C)(C)O[C@@]2(C/C=C(/C)C(=O)O)C4=O)C3=O", "discrete.label": "1 (yes)"}
{"substance.smiles": "C[C@@H]1[C@@H]2Cc3ccc(O)cc3[C@@]1(C)CCN2CCc1ccccc1", "discrete.label": "0 (no)"}
{"substance.smiles": "CN(C(=O)Cc1ccc(Cl)c(Cl)c1)[C@@H](CN1CCCC1)c1cccc(OCC(=O)O)c1", "discrete.label": "0 (no)"}

Lookup: Hi team, can someone confirm the assay call for Oc1c(Cl)c(Cl)c(Cl)c(Cl)c1Cl ?
Found: 1 (yes)
